Target of assay: UniProt P00533
Sequence (P00533 25-1210): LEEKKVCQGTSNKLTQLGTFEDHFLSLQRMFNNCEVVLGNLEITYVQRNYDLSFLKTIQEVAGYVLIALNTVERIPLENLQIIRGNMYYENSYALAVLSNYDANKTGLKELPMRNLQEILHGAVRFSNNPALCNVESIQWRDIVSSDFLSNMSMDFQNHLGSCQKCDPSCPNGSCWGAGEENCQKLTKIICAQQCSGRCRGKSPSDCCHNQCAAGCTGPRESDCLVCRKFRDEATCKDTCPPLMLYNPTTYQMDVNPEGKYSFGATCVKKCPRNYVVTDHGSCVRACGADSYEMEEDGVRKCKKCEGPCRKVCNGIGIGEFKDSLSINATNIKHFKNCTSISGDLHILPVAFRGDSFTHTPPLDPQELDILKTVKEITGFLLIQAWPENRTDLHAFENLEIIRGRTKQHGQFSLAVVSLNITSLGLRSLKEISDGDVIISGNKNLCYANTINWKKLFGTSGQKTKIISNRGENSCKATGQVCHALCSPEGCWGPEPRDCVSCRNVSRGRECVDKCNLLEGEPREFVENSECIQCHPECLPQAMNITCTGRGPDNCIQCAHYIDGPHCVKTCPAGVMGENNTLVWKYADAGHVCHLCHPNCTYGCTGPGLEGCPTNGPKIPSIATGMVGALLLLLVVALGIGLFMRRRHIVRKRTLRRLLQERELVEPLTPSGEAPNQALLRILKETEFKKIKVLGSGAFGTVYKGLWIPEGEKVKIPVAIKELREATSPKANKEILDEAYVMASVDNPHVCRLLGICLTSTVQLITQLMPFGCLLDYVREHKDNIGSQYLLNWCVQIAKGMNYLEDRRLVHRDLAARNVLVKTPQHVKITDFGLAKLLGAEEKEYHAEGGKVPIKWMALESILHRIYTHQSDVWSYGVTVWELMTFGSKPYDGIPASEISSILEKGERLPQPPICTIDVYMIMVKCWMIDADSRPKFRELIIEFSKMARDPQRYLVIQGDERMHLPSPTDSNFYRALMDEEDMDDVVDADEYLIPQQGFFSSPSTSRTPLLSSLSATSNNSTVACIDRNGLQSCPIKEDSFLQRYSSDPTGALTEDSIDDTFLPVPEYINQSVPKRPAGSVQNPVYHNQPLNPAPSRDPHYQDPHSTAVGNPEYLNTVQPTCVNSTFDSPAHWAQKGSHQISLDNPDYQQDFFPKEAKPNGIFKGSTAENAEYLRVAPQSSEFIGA
Assay remarks: In house ELISA kinase inhibition assay, EGFR
Assay type: biochemical
Reported conditions: selectivity for BTK and EGFR
Measured endpoint: Selectivity ratio

- CC#CC(=O)N1CCCC[C@H]1c1nc(-c2ccc(C(=O)Nc3cc(-c4ccc(F)cc4)ccn3)cc2)c(C(N)=O)n1N: 74
- CC#CC(=O)N1CCCC[C@H]1c1nc(-c2ccc(C(=O)Nc3cc(Cl)ccn3)cc2)c(C(N)=O)n1N: 206
- C=CC(=O)N1CCCC[C@H]1c1nc(-c2ccc(C(=O)Nc3cc(C(F)(F)F)ccn3)cc2)c(C(N)=O)n1N: 45
- CC#CC(=O)N1CCCC[C@H]1c1nc(-c2ccc(C(=O)Nc3cc(C(F)(F)F)ccn3)cc2)c(C(N)=O)n1N: 1619
- CC#CC(=O)N1CCCC[C@H]1c1nc(-c2ccc(C(=O)Nc3cc(I)ccn3)cc2)c(C(N)=O)n1N: 439

----------
IC50 values by entry
Target of assay: BTK (Homo sapiens (Human), UniProt Q06187)
Sequence (Q06187 whole entry): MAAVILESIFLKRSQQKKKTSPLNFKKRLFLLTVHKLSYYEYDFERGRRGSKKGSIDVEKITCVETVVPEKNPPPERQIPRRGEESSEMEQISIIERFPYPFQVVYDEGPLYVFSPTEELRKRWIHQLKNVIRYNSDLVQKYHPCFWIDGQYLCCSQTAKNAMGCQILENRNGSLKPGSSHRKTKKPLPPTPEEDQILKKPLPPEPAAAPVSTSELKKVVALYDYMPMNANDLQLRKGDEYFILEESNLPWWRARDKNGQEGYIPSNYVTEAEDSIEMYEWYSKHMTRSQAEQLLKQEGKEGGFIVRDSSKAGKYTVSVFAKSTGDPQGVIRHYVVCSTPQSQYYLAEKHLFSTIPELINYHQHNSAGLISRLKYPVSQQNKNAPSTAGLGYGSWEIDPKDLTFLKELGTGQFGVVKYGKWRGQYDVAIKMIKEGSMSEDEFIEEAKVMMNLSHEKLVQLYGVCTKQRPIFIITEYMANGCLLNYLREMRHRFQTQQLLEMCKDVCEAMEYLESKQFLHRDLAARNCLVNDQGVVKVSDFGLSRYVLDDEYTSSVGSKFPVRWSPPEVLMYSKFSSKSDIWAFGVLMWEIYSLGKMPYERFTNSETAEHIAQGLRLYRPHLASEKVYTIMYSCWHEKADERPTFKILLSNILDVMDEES
Assay remarks: In house ELISA kinase inhibition assay, BTK
Format: biochemical
Reported conditions: footnote b: from in house procedure (ELISA)
Experimental: BTK inhibition Assay and selectivity Assay The assay was conducted either a by a third party (Reaction Biology Corporation, PA, USA) or in house. b) In House Procedure for BTK, BMX, EGFR and ITK: Kinase inhibitory activities of compounds were evaluated using the Enzyme-linked immunosorbent assay (ELISA). The kinase enzyme of BTK, BMX, EGFR and ITK were purchased from Carna Bioscience (Kobe, Japan). […]
Measured endpoint: IC50

- C=CC(=O)N1CCCC[C@H]1c1nc(-c2ccc(C(=O)Nc3cc(C(F)(F)F)ccn3)cc2)c(C(N)=O)n1N: 3.46 nM
- C=CC(=O)N1CCCC[C@H]1c1nc(-c2ccc(C(=O)Nc3cc(C)ccn3)cc2)c(C(N)=O)n1N: 18.1 nM
- C=CC(=O)N1CCCC[C@H]1c1nc(-c2ccc(C(=O)Nc3ccc(C)cn3)cc2)c(C(N)=O)n1N: 18.4 nM
- C=CC(=O)N1CCC[C@H]1c1nc(-c2ccc(C(=O)Nc3ccc(C)cn3)cc2)c(C(N)=O)n1N: 212 nM

----------
Assay remarks: Rat pharmacokinetic assay
Format: in vivo
Reported conditions: male, Sprague-Dawley, plasma, po 10 mg/kg, read-out: AUC
Measured endpoint: AUC (ng·h/mL)

- CC#CC(=O)N1CCCC[C@H]1c1nc(-c2ccc(C(=O)Nc3cc(C(F)(F)F)ccn3)cc2)c(C(N)=O)n1N: 3250

----------
Here's a batch of compounds along with measured IC50 for ITK (Homo sapiens (Human)).
Measured endpoint: IC50

- CC#CC(=O)N1CCCC[C@H]1c1nc(-c2ccc(C(=O)Nc3cc(-c4ccc(F)cc4)ccn3)cc2)c(C(N)=O)n1N [Example 92]: 33.1 µM
- C=CC(=O)N1CCCC[C@H]1c1nc(-c2ccc(C(=O)Nc3cc(C(F)(F)F)ccn3)cc2)c(C(N)=O)n1N [Example 84]: 0.608 µM
- CC#CC(=O)N1CCCC[C@H]1c1nc(-c2ccc(C(=O)Nc3cc(I)ccn3)cc2)c(C(N)=O)n1N [Example 90]: 0.532 µM
- CC#CC(=O)N1CCCC[C@H]1c1nc(-c2ccc(C(=O)Nc3cc(Cl)ccn3)cc2)c(C(N)=O)n1N [Example 98]: 16.5 µM

The reported measurements were obtained from patent US12291516B2.
